apparent KD of MS2 coat protein by entry:
# System: MS2 coat protein
# assay method text: apparent KD of MS2 coat protein; designed switch direction (-1 OFF switch, 1 ON switch): 1; higher = weaker reporter binding
# details: Eterna round: R95; input ligand: FMN 200 uM
Express it in nM; write the number only.

| ordered residues | unit tag | experimental value |
| --- | --- | --- |
| GGCAGGUGCAGGCUUGCUUGCACCUGGAGACAUGAGGAUCACCCAUGUUUGGGACAAGCUUUGCUCUUCGUCUUUUC [JL ViennaUCT Isusreraar mod 6] (puzzle: Sensor for hsa-mir-208a) | nM | 74.1 |

Look up and state reported apparent KD of MS2 coat protein for AGUCCAGCCUGAGCUGGACAAAAGCAUGUACAUGAGGAUCACCCAUGUUUAUGUACAAGCUUUUUGCUCGUCUUAAA [Zipper 52 - 12] (puzzle: Sensor for hsa-mir-208a)
257

Look up and state reported apparent KD of MS2 coat protein for GCCGCACAUGAGGAUCACCCAUGUAAUUACAUGGGAGGAUAUCAGUGCUCGAAAGAGCACUGAGAAGGCCUGAGGC [SS1 - Omei A v1] (puzzle: Same State 1)
296

Look up and state reported apparent KD of MS2 coat protein for GGUCCAGCCUGAGCUGGACAAAAGCAUGUACAUGAGGAUCACCCAUGUUCAUGUACAAGCUUUUUGCUCGUCUUAAA [salish99_208a_r3_035] (puzzle: Sensor for hsa-mir-208a)
427

Look up and state reported apparent KD of MS2 coat protein for UCUUGGUUUUUGCUCGUUUUUUGUGUUGAACAUGAGGAUCACCCAUGUAUUGUACGGUCCAAUUUAGUGGUAGUCCG [JMF 67] (puzzle: Sensor for hsa-mir-208a)
38.4

====

# System: MS2 coat protein
# assay method text: apparent KD of MS2 coat protein; higher = weaker reporter binding
# details: Eterna round: R107; input ligand: tryptophan 2.4 mM
Hi, to clarify the labels: 1 covers apparent KD of MS2 coat protein from 0.03 µM upward, 0 covers anything below 0.03 µM.

Study these solved cases before continuing.
| ordered residues | category |
| --- | --- |
| GGAAAAUAUAGGGAUACCAGAUAUGGCGUUGACAUGAGGAUCACCCAUGUCUUAGCAGUGAUCCCUUGGCAGCCCACACCAUCCG [theeternabot_sameState_MS2_Theo_B_13] | 1 |
| AUGCACAUCUAGGAUACCAGCACCCUUAUGUCACUAGUUAACAUGAGGAUCACCCAUGUUUGCCCUUGGCAGCCUCAUUGACCAU [theeternabot_exclusion_MS2_Theo_B_9] | 1 |
| UACAUGAGGAUCACCCAUGUGUAGAGGGAUACCAGUGACAGUAAGCGCCCUUGGCAGCCCGUGAACAAUGGGUGAGCAAAAUAGU [#17 Exclusion-TheophyllineA] | 1 |
| AUAAAUAAAACCGAUACCAGCCUUAUACAUGAGGAUCACCCAUGUUAUGCUUCCUUUUUUGGCCCUUGGCAGCGGAAAUGGGUAA [AstrosSSTheB#1] | 1 |
| ACAUGAGGAUCACCCAUGUCACGGCACGAUACCAGCUGAUCCGGUGGCCCUUGGCAGCGUGACGUUUGGUCCCGCGGAUCACACG [semullin] | 1 |
| UACAUGAGGAUCACCCAUGUCUGAACUGAAGGAGCGCUAAACAAGGCAGGUAGGUCGCGGAAUUUUGUGUGCAUAUGCAUAUGGG [9.K] | 1 |
| CUCCCGUGGUCGGCCGCCACUGGAGGCUUUGCGCGACAUGAGGAUCACCCAUGUGUGCCCGGCGUCAGGACCGGGAUCGCGUGAG [#1 Same State - Tryptophan B Attempt #13 (HarryS)] | 0 |
| GAGACAUGAGGAUCACCCAUGUUAGAUGAUACCAGUUAGAGAAGGAGCCCUUGGCAGCGUAAAUCUAGAGCCUAUGACGACAUGU [ss-theoA-1] | 0 |
| UAUCGACACUGAAGGAGCGAGAUGACAAACAUGAGGAUCACCCAUGUUAUGGGUUGUUAAUCUCAGGUAGGUCGCAGUGGUCGCA [Same State Arginine B GF 18] | 1 |
| UGGCAAGAGGGAAGGAGCGUCAGCAGAGUCACAUGAGGAUCACCCAUGUAGCACGUGGUGUGACAGGUAGGUCGCCCUCUGCCGU [SS-ArgB12] | 0 |

hey, is apparent KD of MS2 coat protein for this one >= 0.03 µM? CGAUAUAAGACGGCCGCCACUAUUAAGUAUCAAAAUAAACAUGAGGAUCACCCAUGUACAUGGGAUAGGACCGGGUCCAAUAACG [A2]
1

hey, is apparent KD of MS2 coat protein for this one >= 0.03 µM? UUGACAUGAGGAUCACCCAUGUCAAAGGCACGAGGACCGGUACGGCCGCCACUCGUGGUCUAUGGCUGGUGGACUCGUGUCUCGG [Soisusdira]
0

====

# System: MS2 coat protein
# assay method text: apparent KD of MS2 coat protein; higher = weaker reporter binding
# details: Eterna round: R107; input ligand: theophylline 20 uM
apparent KD of MS2 coat protein by entry:
Express it in nM; write the number only.

Below, 6 sequences whose answers are already recorded.
| ordered residues | experimental value |
| --- | --- |
| UCGUUUUAGUCGGCCGCCACUGUAUGCAUGUUUAACAUGAGGAUCACCCAUGUCCCGUACUAUAACAGGACCGGGACGUAAUAGA [JR_SSTryptoB_Sub006] | 207 |
| UGAGGGACCAGAAGGAGCGACAUGAGGAUCACCCAUGUCUCCCGUUAUGGGAGUUCUUUAGGUCAGGUAGGUCGCUGGUCCCUCA [#1 Exclusion - Arginine B Attempt #7 (Inspired by Omei)] | 256 |
| GACAUGAGGAUCACCCAUGUUUGCUAUGAAGGAGCGUCGGAAAUGACAGGUAGGUCGCAUAGUAGACCUUGUAUUUCGUGUGUUU [#01 Exclusion - Arginine A] | 14.5 |
| AGUAGACACGCGGCCGCCACUUGAGGAUCACCCAGGUGGUGUGUACUUGAAACAAGUGCACAAUCAAGGACCGGGCGUGUCUACA [Omei Tryp B SS D v1] | 17.4 |
| UUCUACAUGAGGAUCACCCAUGUGGGUGAUACCAGCACUUUUUGGUGCCCUUGGCAGCACAUGAGAAUACCGUACGAUCGGUGAU [Isbiti] | 559 |
| UAUUCUGACACAGAUACCAGUCAAUUCCGUGGCAAGUGCUACAUGAGGAUCACCCAUGUCGACCCUUGGCAGCUGAAGAGAUACA [theeternabot_exclusion_MS2_Theo_B_50] | 14.7 |

Look up and state reported apparent KD of MS2 coat protein for AACAUGAGGAUCACCCAUGUCUGAACUGAAGGAGCGCUAAAUAAGGCAGGUAGGUCGCGGAAUUUUGUGUACAUAUGUAUAUGGG [9.H]
32.2

Look up and state reported apparent KD of MS2 coat protein for GGUACAUGAGGAUCACCCAUGUAUUGGUACCGAGGACCGGUACGGCCGCCACUCGCAUGACAUGAGGAUCACCCAUGUGAAACCU [SSTA DOUBLE!!! :-D #12]
51.6

Look up and state reported apparent KD of MS2 coat protein for UAACAUGAGGAUCACCCAUGUUUGAAGGAACGAGGACCGGUACGGCCGCCACUCGACGAGUGGAUGAGAAGUGGGCUUGUGUGCU [Same State Trp A GF9]
16.3

Look up and state reported apparent KD of MS2 coat protein for CCUCAAUCGUCGGCCGCCACUGAAUCAUGCGGAUACAUGAGGAUCACCCAUGUGGGUGUGGUACGCAGGACCGGGACAAGACCCG [#14 Same State - Tryptophan B]
337

Look up and state reported apparent KD of MS2 coat protein for UGUCAUGGAAACAUGACUGGUUCUACCGGUCGAGGACCGGUACGGCCGCCACUCGAUUGGUGGCACAUGAGGAUCACCCAUGUUA [SS Tryp A #14]
51.9

Look up and state reported apparent KD of MS2 coat protein for CUCCCGUGGUCGGCCGCCACUGGAGGCUUUGCGCGACAUGAGGAUCACCCAUGUGUGCCCGGCGUCAGGACCGGGAUCGCGUGAG [#1 Same State - Tryptophan B Attempt #13 (HarryS)]
16

Look up and state reported apparent KD of MS2 coat protein for UGUGCAGGAUGCGUAAAGGGUCUUGGGCAUCGAGGACCGGUACGGCCGCCACUCGGCUGUACAUGAGGAUCACCCAUGUCAGGGU [#1 Same State - Tryptophan A Attempt #20 (HarryS)]
1060

Look up and state reported apparent KD of MS2 coat protein for UCGUGUGUUUCGGAUACCAGUGUGGUCGAUACAUGAGGAUCACCCAUGUGAGAGGAGGUACACCCUUGGCAGCUGGCUGUUGCGG [qqwmullin]
82

Look up and state reported apparent KD of MS2 coat protein for GCACCAGGUACGGAUACCAGAGCAAGCCAAAUGAGUGAACAUGAGGAUCACCCAUGUUUGCUCCCUUGGCAGCCGUACCUGGUGC [ETB NP+V+V2 #11 +-Same Structure]
12.2

Look up and state reported apparent KD of MS2 coat protein for GGGCGUGUGGUGCGGCGUGCUCCGCUCCGUCGAGGACCGGUACGGCCGCCACUCGACAUGAGGAUCACCCAUGUGCGAGCGCGCG [#1 Exclusion - Tryptophan A Attempt #9 (HarryS)]
10.5

Look up and state reported apparent KD of MS2 coat protein for CCUAUGCAGUCGGCCGCCACUGAUAAAGUUAUCUUUACCUCAGAAACAUGAGGAUCACCCAUGUACAGGACCGGGACUGUAUAGG [Ex Tryptophan B 18]
14.6

Look up and state reported apparent KD of MS2 coat protein for GGUAUGUAUUCGGAAACGAAUGCAUACCAACGAGGACCGGUACGGCCGCCACUCGGGCGGCGAUCACAUGAGGAUCACCCAUGUA [Ex Tryptophan A 2]
45.3

Look up and state reported apparent KD of MS2 coat protein for GUGUGCGGCACGGCCGCCACUGCGGUGGUGUGACAUGAGGAUCACCCAUGUUGUCAUGCGGCCCUUAGGACCGGGUGGCGUGCAC [#1 Exclusion - Tryptophan B Attempt #17 (HarryS)]
61.2

Look up and state reported apparent KD of MS2 coat protein for UGGAGUAGGACGGCCGCCACUAUACAAUGUGUAUACAUGAGGAUCACCCAUGUAAUCCUCGGAGAUAGGACCGGGUCAAGUUGUG [X-tryptB-ms2@35]
85.4

Look up and state reported apparent KD of MS2 coat protein for UUUAACAAGAACGUCCUGAGUGACAAGCUACGAGGACCGGUACGGCCGCCACUCGUACCAAAACAUGAGGAUCACCCAUGUUAAA [theeternabot_exclusion_MS2_Trp_A_44]
19.3

Look up and state reported apparent KD of MS2 coat protein for GGUUGGUGUAGAGAUAUAUUGAUUACUGAAGGAGCGGGAAAUAACCCAGGUAGGUCGCAGAGAUCCACAUGAGGAUCACCCAUGU [!0.K]
53
